# tgt: T1, human CD112R on GS-J2C/CD112R effector cells (human, UniProt Q6DKI7 1-326)
# T1 sequence (looked up): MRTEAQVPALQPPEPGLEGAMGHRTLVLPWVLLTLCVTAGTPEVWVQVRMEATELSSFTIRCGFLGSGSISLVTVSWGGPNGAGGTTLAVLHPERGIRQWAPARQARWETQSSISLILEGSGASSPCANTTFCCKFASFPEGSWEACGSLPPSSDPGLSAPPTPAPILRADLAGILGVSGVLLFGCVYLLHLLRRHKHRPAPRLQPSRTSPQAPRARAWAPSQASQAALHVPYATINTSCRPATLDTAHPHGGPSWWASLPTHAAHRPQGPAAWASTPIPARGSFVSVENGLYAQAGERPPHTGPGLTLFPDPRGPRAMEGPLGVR
# method: cell-based or functional assay
recorded metric: EC50 (Blocking effects of the antibodies, reporter gene method) (µg/mL)

>>> measured_value("C64 (antibody, human IgG1, kappa, V domains shown) VH: EVMLVESGGDLVKPGGSLKLSCAASGFTFSSYFMSWVRQTPEKRLEWVATISGGGDKTYYLDILKGRFTISRDNAKNTLYLQMSSLRSEDTALYYCARHEDYAWYAMDYWGQGTSVTVSS VL: QIVLTQSPAIMSASPGEKVTMTCSASSSVNYIYWYQQKPGSSPRLLIYDTSNLASGVPVRFSGSGSGTSYSLTISRMEAEDAATYYCQQWSSYPLTFGAGTKLELKR")
0.039
>>> measured_value("C154 (antibody, human IgG1, kappa, V domains shown) VH: EVQLVESGGGLVKPGGSLRLSCAASGFTFSDYYMYWVRQAPGKGLEWVSTISDAGGYTYYPDSVKGRFTISRDNAKNSLYLQMNSLRAEDTAVYYCAREDLWGQGTLVTVSS VL: DIQMTQSPSSLSASVGDRVTITCRASQDIGYSLNWFQQKPGKAPKRLIYATSRLDSGVPKRFSGSGSGTDFTLTISSLQPEDFATYYCLQYASFPYTFGGGTKLEIKR")
0.071
>>> measured_value("C7 (antibody, human IgG1, kappa, V domains shown) VH: EVQLQQSGPELVKPGASVKISCKASGYTLTDYYMNWVKQSHGKSLEWIGDINPNNGGTNFNQKFKGKATLTIDKSSSTTYMELRSLTSEDSAVYYCASLFFDYWGQGTTLTVSS VL: DIVMTQSPSSLSVSAGEKVTMSCKSSQSLLNSGNQKNYLAWYQQKPGQPPKLLIYGASTRESGVPDRFTGSGSGTDFTLTISSVQAEDLALYYCQNAHSSPYTFGGGTKLEIKR")
0.031
>>> measured_value("C71 (antibody, human IgG1, kappa, V domains shown) VH: EVILVESGGGLVKPGGSRKLSCAASGFTFSSYFMSWVRQTPEKRLEWVATISGGGDNTYYPDSVKGRFTISRDNAKNTLYLQMSSLRSEDTALYYCARHEDYEWYAMDYWGQGTSVTVSS VL: QIVLTQSPAIMSTSPGEKVTMTCSASSSVSYIYWYQQKPGSSPRLLIYDTSNLASGVPVRFSGSGSGTSYSLTISRMEAEDAATYYCQQWTSYPLTFGAGTKLELKR")
0.029
>>> measured_value("C57 (antibody, human IgG1, kappa, V domains shown) VH: EVQLQQSGPVLVKPGASVKMSCKASGYIFTDYYMHWVKQSHGKSLEWIGIINPYNGDTSYNQKFKDKATLTVDKSSSTAYMELNSLTSEDSAVYYCARDSSNVGNAMDYWGQGTSVTVSS VL: DIQMTQTTSSLSASLGDRVTISCRASQDISNYLNWYLQKPDGTIKLLIYYSSRLHSGVPSRFSGSGSGTDYSLTISNLEQEDIATYFCQQGYTLPRTFGGGTKLEIIR")
0.061
